Listing of recorded displacement by entry.
target: Heat shock 70 kDa protein 1A (Homo sapiens) (UniProt P0DMV8); test: Hsp70 inhibitors, probe displacement, primary screen, biochemical, fluorescence polarization (AID 583); conditions: mP, at 20 µM, stronger effect = higher value;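 also: plate controls were vehicle for no effect and reference ligand for full effect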
Sequence (P0DMV8 whole entry, looked up): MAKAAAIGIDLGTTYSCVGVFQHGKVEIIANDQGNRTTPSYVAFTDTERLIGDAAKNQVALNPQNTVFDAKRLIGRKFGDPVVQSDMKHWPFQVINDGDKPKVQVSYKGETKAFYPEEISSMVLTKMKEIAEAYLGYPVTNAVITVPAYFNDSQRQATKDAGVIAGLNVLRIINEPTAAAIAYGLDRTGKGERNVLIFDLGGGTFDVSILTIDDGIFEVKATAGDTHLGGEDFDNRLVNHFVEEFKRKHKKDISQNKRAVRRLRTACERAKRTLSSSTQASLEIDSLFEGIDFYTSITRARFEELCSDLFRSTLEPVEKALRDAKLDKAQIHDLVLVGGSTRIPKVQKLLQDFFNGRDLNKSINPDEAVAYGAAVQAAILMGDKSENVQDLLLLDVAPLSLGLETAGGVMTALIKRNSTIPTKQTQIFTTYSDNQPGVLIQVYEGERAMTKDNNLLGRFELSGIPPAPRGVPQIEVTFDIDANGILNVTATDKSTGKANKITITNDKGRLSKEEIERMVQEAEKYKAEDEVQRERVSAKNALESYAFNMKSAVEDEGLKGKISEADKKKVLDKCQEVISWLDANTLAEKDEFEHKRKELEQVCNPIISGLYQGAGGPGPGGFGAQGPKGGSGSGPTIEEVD
In all, about 140,000 compounds went through this assay and about 80 (0.06%) were called active. What follows is part of a selection rich in actives, with near analogues and random picks from the rest.
Your answer is read as %, so omit the unit and give the number.

Use the examples below as a reference point.
> print(dat)
                               smiles.entry    observable  result.value
1  CCOc1ccc(N2C(=O)/C(=C/c3ccc(OCc4cccc(C(=O)O)c4)cc3)C(=O)NC2=S)cc1  displacement           5.7
2  O=C1NC(=S)N(c2ccccc2F)C(=O)/C1=C/c1ccc(OCc2cccc(C(=O)O)c2)cc1  displacement          51.5

For the compound `CCOC(=O)c1ccc(N2N=C(C)/C(=C/C=C/c3ccco3)C2=O)cc1` , give its measured displacement value.
0.7

For the compound `O=C1NC(=O)N(c2ccccc2F)C(=O)/C1=C/c1ccc(OCc2cccc(C(=O)O)c2)cc1` , give its measured displacement value.
0.2

For the compound `CCc1ccc(N2C(=O)/C(=C/c3ccc(I)o3)C(=O)NC2=S)cc1` , give its measured displacement value.
84.7

For the compound `O=C(NCCc1ccccc1)c1cnc2sccn2c1=O` , give its measured displacement value.
-1.6

For the compound `Cc1ccc(N2C(=O)NC(=O)/C(=C\c3ccc(I)o3)C2=O)cc1` , give its measured displacement value.
6.1

---

biological target: Heat shock 70 kDa protein 1A (Homo sapiens); assay: Hsp70 inhibitors, probe displacement, primary screen, biochemical, fluorescence polarization (AID 583); settings: mP, at 20 µM, stronger effect = higher value;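 also: plate controls were vehicle for no effect and reference ligand for full effect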
In all, about 140,000 compounds went through this assay and about 80 (0.06%) were called active. The sample holds actives, similar compounds and a random draw of the others, so the mix is not that of the screen.
observable: displacement (%)
Your answer is read as %, so omit the unit and give the number.

Report its displacement with Heat shock 70 kDa protein 1A (Homo sapiens) as the test system: `O=c1ccc(Oc2nc(N3CCOCC3)nc(N3CCOCC3)n2)nn1-c1ccccc1`
6.5

Report its displacement with Heat shock 70 kDa protein 1A (Homo sapiens) as the test system: `CCCN1C(=O)/C(=C2\SC(=S)N(CCC(=O)O)C2=O)c2ccccc21`
-0.7

Report its displacement with Heat shock 70 kDa protein 1A (Homo sapiens) as the test system: `O=C(O)CCCCCN1C(=O)/C(=C2/C(=O)N(CC(=O)O)c3ccccc32)SC1=S`
5.6

Report its displacement with Heat shock 70 kDa protein 1A (Homo sapiens) as the test system: COc1ccc(C2Nc3ccccc3NC3=C2C(=O)CC(c2ccc(Cl)cc2)C3)cc1 (configuration not stated)
-0.1

Report its displacement with Heat shock 70 kDa protein 1A (Homo sapiens) as the test system: `O=C(c1coc(=O)c(Br)c1)N1CCOCC1`
7.3

Report its displacement with Heat shock 70 kDa protein 1A (Homo sapiens) as the test system: `CCOC(=O)C(=O)Nc1ccc(NC(C)=O)cc1`
56.6

Report its displacement with Heat shock 70 kDa protein 1A (Homo sapiens) as the test system: `CCOC(=O)c1c(C)nc(-c2ccccc2)nc1NC(=O)c1ccccc1`
-1.8

Report its displacement with Heat shock 70 kDa protein 1A (Homo sapiens) as the test system: `CCOC(=O)c1c(C)nc(C)nc1NC(=O)c1ccccc1`
85.3

Report its displacement with Heat shock 70 kDa protein 1A (Homo sapiens) as the test system: `Cc1cccc(-c2cc3nc(C)cc(NCCCN(C)C)n3n2)c1`
4.1

Report its displacement with Heat shock 70 kDa protein 1A (Homo sapiens) as the test system: O=C1c2oc3ccc(F)cc3c(=O)c2C(c2ccccc2)N1CC1CCCO1 (configuration not stated)
-3.1

Report its displacement with Heat shock 70 kDa protein 1A (Homo sapiens) as the test system: `O=C(O)CCN1C(=O)/C(=C2\C(=O)N(Cc3ccccc3Cl)c3ccccc32)SC1=S`
53.2

Report its displacement with Heat shock 70 kDa protein 1A (Homo sapiens) as the test system: `O=C(CNC(=O)c1ccc(Cl)cc1Cl)c1ccccc1`
1.6

Entry source: PubChem BioAssay AID583
